Target: autotaxin (ATX) (Homo sapiens)
Construct: conditioned medium from the human melanoma cell line, MDA-MB-4355, which endogenously expresses autotaxin; serum-free conditioned medium, concentrated 20-fold
Test: Native Autotaxin Choline Release Assay
Details: autotaxin in conditioned medium from human melanoma cell line; choline released from LPC; read-out: MDA-MB-435S Assay IC50
// reported IC50 for each item listed

Please review the following examples before continuing.
Smiles entry: CCCn1cc(-n2c(C)c(Sc3cc(F)cc(C(=O)O)c3)c3ccc(Cl)c(F)c32)cn1
Result: < 300 nM

Smiles entry: CCCn1cc(-n2c(C)c(Sc3ccc(OC)c(C(=O)O)c3)c3ccc(Cl)c(F)c32)cn1
Result: < 300 nM

Smiles entry: Cc1c(Sc2cccc(C(=O)O)c2)c2ccc(Cl)cc2n1-c1cnn(CC(F)(F)F)c1
Result: < 300 nM

Lookup result for Cc1c(Sc2cccc(C(=O)O)c2)c2ccc(Cl)cc2n1-c1cccc(-c2ccccc2)c1 ; measured IC50: 300 to 1000 nM
